Data origin, for the record: the supplement of paper PMC3545927

Here the recorded furin cleavage Z-score is given for each entry.
- tested on: furin, P09958;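 note: purified furin at 1:10 enzyme:substrate in 50 mM HEPES pH 7.5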
- Sequence (P09958 whole entry): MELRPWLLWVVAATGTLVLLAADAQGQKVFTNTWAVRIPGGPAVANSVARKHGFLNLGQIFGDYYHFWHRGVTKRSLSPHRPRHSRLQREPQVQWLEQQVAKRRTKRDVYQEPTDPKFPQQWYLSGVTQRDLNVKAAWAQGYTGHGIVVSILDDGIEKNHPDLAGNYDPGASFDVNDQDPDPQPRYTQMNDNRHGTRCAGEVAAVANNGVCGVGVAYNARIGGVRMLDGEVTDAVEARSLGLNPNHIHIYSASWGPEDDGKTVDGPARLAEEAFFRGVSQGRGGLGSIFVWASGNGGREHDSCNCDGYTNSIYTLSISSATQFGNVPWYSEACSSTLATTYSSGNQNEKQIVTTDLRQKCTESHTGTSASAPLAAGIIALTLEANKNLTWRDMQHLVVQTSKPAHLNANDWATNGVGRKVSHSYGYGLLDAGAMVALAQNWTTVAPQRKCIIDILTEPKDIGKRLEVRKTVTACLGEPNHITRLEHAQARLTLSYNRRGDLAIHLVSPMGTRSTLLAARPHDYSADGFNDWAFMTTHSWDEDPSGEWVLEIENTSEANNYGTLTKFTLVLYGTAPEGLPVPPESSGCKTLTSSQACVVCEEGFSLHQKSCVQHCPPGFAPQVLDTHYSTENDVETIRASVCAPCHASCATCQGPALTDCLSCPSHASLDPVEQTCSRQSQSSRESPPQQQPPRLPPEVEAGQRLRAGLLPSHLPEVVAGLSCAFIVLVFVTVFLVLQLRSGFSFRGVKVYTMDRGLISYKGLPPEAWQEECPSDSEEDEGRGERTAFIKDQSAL
- method notes: furin cleavage Z-score vs untreated control; higher = more cleavage, active = 3.5 or more, inactive = 1 or less, 8 variable residues between constant flanks
- measurement conditions: 15 min
The list shows a part of the results. How many sequences the whole screen found active is unknown.

{"columns": ["residue sequence", "furin cleavage Z-score"],
 "data": [
  ["CAYPPKPCGIAGNASASA [HC405]", 1.24],
  ["CASTPCSAHLAGNASASA [HC2477]", 0.749],
  ["CALNEIKKRFAGNASASA [FS-352]", -1.42],
  ["CATTPCSGSRAGNASASA [HC1933]", 1.02],
  ["CARMWRKNRSAGNASASA [FS-954]", 10],
  ["CAGSIRKKRFAGNASASA [FS-1457]", 7.01],
  ["CAETTTPCSGAGNASASA [HC1978]", 0.124]
]}
